# target_entity: human S1P1 receptors (Homo sapiens, UniProt P21453)
# Sequence (P21453 whole entry): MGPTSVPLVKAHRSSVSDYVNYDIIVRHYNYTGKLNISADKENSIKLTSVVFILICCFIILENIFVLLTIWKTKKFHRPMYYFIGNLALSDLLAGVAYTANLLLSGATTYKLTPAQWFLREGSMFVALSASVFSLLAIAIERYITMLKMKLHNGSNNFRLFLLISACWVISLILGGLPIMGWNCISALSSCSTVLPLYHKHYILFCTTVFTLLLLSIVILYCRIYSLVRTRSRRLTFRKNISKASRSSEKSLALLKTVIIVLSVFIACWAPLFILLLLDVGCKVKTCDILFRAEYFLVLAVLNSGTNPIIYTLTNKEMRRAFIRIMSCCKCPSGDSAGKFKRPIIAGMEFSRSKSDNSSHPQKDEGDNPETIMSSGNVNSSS
# procedure_details: S1P1R antagonist assay (fluorescent membrane potential dye, cAMP readout)
# condition_notes: HEK293 cells expressing human S1P1 receptors and CNG channel; 500 nM NECA; S1P1R agonist 10 nM; 90 minutes; read-out: EC50 or IC50 value
pIC50: −log10 of the molar value.

compound	pIC50
O=C(CN1CCc2ccccc2C1)N[C@@H](COCc1ccccc1)C(=O)Nc1ccc(Oc2ccc(F)cc2)cc1 [Compound 221]	6.00 to 6.52
O=C(Cc1cccs1)N[C@@H](COCc1ccccc1)C(=O)Nc1ccc(Oc2ccccc2)cc1 [Compound 198]	6.00 to 6.52
O=C(Cc1cccc(Cl)c1)NC(COCc1ccccc1)C(=O)Nc1ccc(Oc2ccccc2)cc1 (stereo not drawn) [Compound 377]	6.00 to 6.52
COCCC(=O)N1C[C@H](Cc2ccccc2)C[C@H]1C(=O)Nc1ccc(Oc2ccc(F)cc2)cc1 [Compound 90]	≥ 6.52
CSCCC(=O)N1C[C@H](Cc2ccccc2)C[C@H]1C(=O)Nc1ccc(Oc2ccc(F)cc2)cc1 [Compound 85]	≥ 6.52
CC1CCN(CC(=O)N[C@@H](COCc2ccccc2)C(=O)Nc2ccc(Oc3ccc(F)cc3)cc2)CC1 [Compound 130]	< 6.00
COc1ccc(N2CCN(CC(=O)N[C@@H](COCc3ccccc3)C(=O)Nc3ccc(Oc4ccc(F)cc4)cc3)CC2)cc1 [Compound 224]	6.00 to 6.52
O=C(Nc1ccc(Oc2ccc(F)cc2)cc1)[C@@H]1C[C@@H](Cc2ccc(F)cc2)CN1C(=O)Cn1cncn1 [Compound 141]	≥ 6.52
COc1ccc(CCC(=O)NC(COCc2ccccc2)C(=O)Nc2ccc(Oc3ccccc3)cc2)cc1 (stereo not drawn) [Compound 304]	< 6.00
COc1ccccc1CCC(=O)NC(COCc1ccccc1)C(=O)Nc1ccc(Oc2ccccc2)cc1 (stereo not drawn) [Compound 394]	< 6.00
O=C(NC(COCc1ccccc1)C(=O)Nc1ccc(Oc2ccccc2)cc1)c1ccc2cc[nH]c2c1 (stereo not drawn) [Compound 187]	6.00 to 6.52
O=C(NC(COCc1ccccc1)C(=O)Nc1ccc(Oc2ccccc2)cc1)c1ccc(-c2cccc(C(F)(F)F)c2)o1 (stereo not drawn) [Compound 321]	< 6.00
O=C(NC(COCc1ccccc1)C(=O)Nc1ccc(Oc2ccccc2)cc1)c1ccc2[nH]cnc2c1 (stereo not drawn) [Compound 342]	< 6.00
O=C(CCc1cccs1)NC(COCc1ccccc1)C(=O)Nc1ccc(Oc2ccccc2)cc1 (stereo not drawn) [Compound 403]	6.00 to 6.52
Nc1nc(C(F)(F)F)nn1CC(=O)N1C[C@H](Cc2ccccc2)C[C@H]1C(=O)Nc1ccc(Oc2ccc(F)cc2)cc1 [Compound 11]	≥ 6.52
O=C(Nc1ccc(Oc2ccc(F)cc2)cc1)[C@@H]1C[C@@H](Cc2ccccc2Cl)CN1C(=O)Cn1nccn1 [Compound 56]	≥ 6.52
O=C(Nc1ccc(Oc2ccc(F)cc2)cc1)[C@@H]1C[C@@H](Cc2ccccc2)CN1C(=O)CCCc1ccc2c(c1)OCCO2 [Compound 33]	≥ 6.52
O=C(NC(COCc1ccccc1)C(=O)Nc1ccc(Oc2ccccc2)cc1)c1cc(F)ccc1Br (stereo not drawn) [Compound 21]	< 6.00
O=C(CN1CCN(C(=O)c2ccco2)CC1)N[C@@H](COCc1ccccc1)C(=O)Nc1ccc(Oc2ccc(F)cc2)cc1 [Compound 223]	6.00 to 6.52
CC(=O)OCC(=O)NC(COCc1ccccc1)C(=O)Nc1ccc(Oc2ccccc2)cc1 (stereo not drawn) [Compound 388]	< 6.00
O=C(COc1cccc2ccccc12)NC(COCc1ccccc1)C(=O)Nc1ccc(Oc2ccccc2)cc1 (stereo not drawn) [Compound 371]	< 6.00
